Target: UniProtKB P21589
Assay: CD73 inhibition assay (Malachite Green phosphate detection)
Type: biochemical
Settings: 250 pM hCD73, 12.5 μM AMP, 20 min pre-incubation, absorbance 620 nm
Where a name gives a salt, the structure may show the parent alone.
PROPERTY_MEASURED: IC50 (nM)
Give bare numbers, in nM.

Sample records with IC50:
1) O=c1[nH]cc(-c2cc3c(NCc4ccc(Cl)cc4)ncnc3o2)c(=O)[nH]1
9730
2) CC1(C)CN(c2ncnc3oc(-c4c[nH]c(=O)[nH]c4=O)cc23)CC1(F)F
25.4
3) CC1(C)CN(c2ncnc3nn(-c4c[nH]c(=O)[nH]c4=O)cc23)CC1(F)F
44.8

Take each entry in turn and give its IC50.
1. CN1CCOC(COC2CN(c3ncnc4sc(-c5c[nH]c(=O)[nH]c5=O)cc34)CC2(F)F)C1 (centres unmarked) [Example 4.3, formate salt]
2. CC1(C)CN(c2cncc3nn(-c4c[nH]c(=O)[nH]c4=O)cc23)CC1(F)F
3. O=c1[nH]cc(-c2cc3c(N4CC(OCCN5CCCCC5)C(F)(F)C4)ncnc3s2)c(=O)[nH]1 (centres unmarked) [Example 5, formate salt]
4. O=c1[nH]cc(-c2nc3ncnc(N4CCC(OCCN5CCCCC5)C4)c3s2)c(=O)[nH]1 (centres unmarked)
5. O=c1[nH]cc(-c2cc3c(N4CCC(OCc5ccccn5)C4)ncnc3s2)c(=O)[nH]1 (centres unmarked) [Example 4.1, formate salt]
6. CC1(C)CN(c2ncc(C#N)c3nn(-c4c[nH]c(=O)[nH]c4=O)cc23)CC1(F)F

Reply text:
269
20.8
32
57.3
96
52

Take each entry in turn and give its IC50.
1. O=c1[nH]cc(-c2cc3c(N4CCC(CO)C4)ncnc3s2)c(=O)[nH]1 (centres unmarked)
2. CC1(C)CN(c2ccnc3sc(-c4c[nH]c(=O)[nH]c4=O)cc23)CC1(F)F
3. CCC1(CC)CCN(c2ncnc3nn(-c4c[nH]c(=O)[nH]c4=O)cc23)C1
4. Cc1nc(N2CC(C)(C)C(F)(F)C2)c2cn(-c3c[nH]c(=O)[nH]c3=O)nc2n1

Reply text:
715
256
73.9
152

Take each entry in turn and give its IC50.
1. O=c1[nH]cc(-c2cc3c(N4CCC(OCCN5CCCCC5)C4)ncnc3o2)c(=O)[nH]1 (centres unmarked) [Example 7, formate salt]
2. O=c1[nH]cc(-c2cc3c(N4CC(OCCN5CCCCC5)C(F)(F)C4)ncnn3c2)c(=O)[nH]1 (centres unmarked) [Example 17, formate salt]
3. CC1(C)CN(c2ncnc3sc(-c4c[nH]c(=O)[nH]c4=O)cc23)C1
4. COC1CN(c2ncnc3nn(-c4c[nH]c(=O)[nH]c4=O)cc23)CC1(F)F (centres unmarked)

Reply text:
[22.8, 59.4, 428, 49.2]

Take each entry in turn and give its IC50.
1. O=C1N=CC(c2cc3c(N4CCC(OCCN5CCCCC5)C4)nc(Cl)nn3c2)C(=O)N1 (centres unmarked)
2. O=C(OC1CN(c2ncnc3oc(-c4c[nH]c(=O)[nH]c4=O)cc23)CC1(F)F)N1CCOCC1 (centres unmarked)
3. CN1CCOC(COC2CCN(c3ncnc4sc(-c5c[nH]c(=O)[nH]c5=O)cc34)C2)C1 (centres unmarked)

Reply text:
62.5
136
74.3

====

What IC50 was measured for each of the following?
Molecular target: CD73 activity in U138-MG cells (Homo sapiens (Human))
Assay: U138-MG inhibition assay (inorganic phosphate from AMP, PiColorLock Gold)
Settings: 100 μM AMP, 30 min pre-incubation, 1 hour at 37° C.
Where a name gives a salt, the structure may show the parent alone.
Answers are plain numbers, in nM.

1. O=c1[nH]cc(-c2cc3c(N4CC(O)C(F)(F)C4)ncc(Cl)n3n2)c(=O)[nH]1 (stereo not shown)
12

Take each entry in turn and give its IC50.
1. O=c1[nH]cc(-c2cc3c(N4CC(F)(F)C5(CCCC5)C4)ncnc3o2)c(=O)[nH]1
2. O=c1[nH]cc(-n2cc3c(N4CCC5(COC5)C4)ncc(F)c3n2)c(=O)[nH]1
3. CC1(C)CN(c2ncc(F)c3nn(-c4c[nH]c(=O)[nH]c4=O)cc23)CC1(F)F
4. O=c1[nH]cc(-c2cc3c(N4CCC(CO)C4)ncnc3s2)c(=O)[nH]1 (stereo not shown)
5. N#Cc1ccc(OC2CCN(c3ncnc4sc(-c5c[nH]c(=O)[nH]c5=O)cc34)C2)nc1 (stereo not shown)
6. O=c1[nH]cc(-c2cc3c(N4CCC(OCc5ccccc5)C4)ncnc3s2)c(=O)[nH]1 (stereo not shown)

Reply text:
1. 104
2. 17
3. 2.9
4. 2340
5. 588
6. 3140

Take each entry in turn and give its IC50.
1. CC1(C)CCN(c2ncnc3sc(-c4c[nH]c(=O)[nH]c4=O)cc23)C1
2. N#Cc1ccc(OC2CCN(c3ncnc4nn(-c5c[nH]c(=O)[nH]c5=O)cc34)C2)nc1 (stereo not shown)
3. CN1CCOC(COC2CN(c3nccn4nc(-c5c[nH]c(=O)[nH]c5=O)cc34)CC2(F)F)C1 (stereo not shown)
4. CC1(C)CCN(c2ncc(Cl)n3nc(-c4c[nH]c(=O)[nH]c4=O)cc23)C1
5. CC1(C)CN(c2ncnc3sc(-c4c[nH]c(=O)[nH]c4=O)cc23)C1

Reply text:
[1120, 11.8, 46, 11, 1010]

Take each entry in turn and give its IC50.
1. O=c1[nH]cc(-c2cc3c(N4CC(F)(F)C5(CCC5)C4)nccn3n2)c(=O)[nH]1
2. CC1(C)CN(c2ncc(F)n3nc(-c4c[nH]c(=O)[nH]c4=O)cc23)CC1(F)F
3. O=c1[nH]cc(-c2nc3c(N4CCC(OCCN5CCCCC5)C4)ncnc3[nH]2)c(=O)[nH]1 (stereo not shown)
4. O=c1[nH]cc(-c2cc3c(N4CC(OCCN5CCCCC5)C(F)(F)C4)ncnn3c2)c(=O)[nH]1 (stereo not shown) [Example 17, formate salt]

Reply text:
1: 38.3; 2: 5; 3: 65.6; 4: 108

====

Molecular target: CD73 activity in U138-MG cells (Homo sapiens (Human), UniProt P21589)
Sequence (P21589 27-574): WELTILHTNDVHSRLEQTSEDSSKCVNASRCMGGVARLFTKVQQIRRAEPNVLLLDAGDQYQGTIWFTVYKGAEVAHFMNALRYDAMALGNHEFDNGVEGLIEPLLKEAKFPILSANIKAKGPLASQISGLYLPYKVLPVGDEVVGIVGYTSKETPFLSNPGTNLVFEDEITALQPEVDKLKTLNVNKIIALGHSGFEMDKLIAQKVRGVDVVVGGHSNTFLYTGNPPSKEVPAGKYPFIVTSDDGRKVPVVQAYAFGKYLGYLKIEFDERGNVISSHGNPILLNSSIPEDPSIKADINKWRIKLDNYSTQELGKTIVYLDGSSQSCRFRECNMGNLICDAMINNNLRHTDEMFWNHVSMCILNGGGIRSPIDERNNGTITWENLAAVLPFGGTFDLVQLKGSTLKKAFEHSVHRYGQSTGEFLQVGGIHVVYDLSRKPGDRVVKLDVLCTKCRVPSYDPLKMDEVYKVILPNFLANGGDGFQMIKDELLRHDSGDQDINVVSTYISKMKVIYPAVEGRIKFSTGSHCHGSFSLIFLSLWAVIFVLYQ
Assay: U138-MG inhibition assay (inorganic phosphate from AMP, PiColorLock Gold)
Conditions: 100 μM AMP, 30 min pre-incubation, 1 hour at 37° C.
PROPERTY_MEASURED: pIC50
Give bare numbers, as −log10 of the molar value.

1. O=c1[nH]cc(-n2cc3c(N4CC(F)(F)C(F)(F)C4)ncnc3n2)c(=O)[nH]1
7.92

Take each entry in turn and give its pIC50.
1. O=c1[nH]cc(-c2cc3c(N4CCC(OCCN5CCCCC5)C4)ncnn3c2)c(=O)[nH]1 (stereo not shown)
2. COC1CN(c2nccn3nc(-c4c[nH]c(=O)[nH]c4=O)cc23)CC1(F)F (stereo not shown)
3. O=c1[nH]cc(-c2cc3c(N4CCC(OCCN5CCCCC5)C4)ncnc3s2)c(=O)[nH]1 (stereo not shown)
4. CC1(C)CN(c2ncc(I)n3nc(-c4c[nH]c(=O)[nH]c4=O)cc23)CC1(F)F

Reply text:
7.28
7.04
7.34
7.42

Take each entry in turn and give its pIC50.
1. O=c1[nH]cc(-n2cc3c(N4C[C@H]5COC[C@H]5C4)ncnc3n2)c(=O)[nH]1
2. CC1(C)CN(c2nccn3nc(-c4c[nH]c(=O)[nH]c4=O)cc23)CC1(F)F

Reply text:
7.31
7.41

====

Target: CD73 activity in U138-MG cells (Homo sapiens (Human), UniProt P21589)
Assay: U138-MG inhibition assay (inorganic phosphate from AMP, PiColorLock Gold)
Format: cell-based
Conditions: 100 μM AMP, 30 min pre-incubation, 1 hour at 37° C.
pIC50: −log10 of the molar value. Counter-ions that a name gives are not always drawn.
Parameter class (string): assigned from measured pIC50. Ranges: I: < 7; II: ≥ 7 and < 8; III: ≥ 8

As a guide, the following entries are already answered.
1) O=c1[nH]cc(-c2cc3c(N4CCC(CCO)C4)ncnc3s2)c(=O)[nH]1 (stereo not shown) [Example 1.1]
I
2) O=c1[nH]cc(-n2cc3c(N4CC(F)(F)C5(CCC5)C4)ncc(F)c3n2)c(=O)[nH]1 [Example 26.1]
III

Inquiry: # bin label for O=c1[nH]cc(-c2cc3c(N4CCC(OCCO)C4)ncnc3s2)c(=O)[nH]1 (stereo not shown) [Example 1.3]
Reply text: I

Inquiry: # bin label for O=c1[nH]cc(-n2cc3c(N4CC(F)(F)C5(CCC5)C4)ncnc3n2)c(=O)[nH]1 [Example 13.2]
Reply text: III

Inquiry: # bin label for O=c1[nH]cc(-c2cc3c(N4CCC(OCc5ccccn5)C4)ncnc3s2)c(=O)[nH]1 (stereo not shown) [Example 4.1, formate salt]
Reply text: I

Inquiry: # bin label for CC(C)NC(=O)OC1CN(c2ncnc3oc(-c4c[nH]c(=O)[nH]c4=O)cc23)CC1(F)F (stereo not shown) [Example 22.2]
Reply text: II

Inquiry: # bin label for CC1(C)CN(c2ncc(C(F)(F)F)n3nc(-c4c[nH]c(=O)[nH]c4=O)cc23)CC1(F)F [Example 25.9]
Reply text: II

Inquiry: # bin label for CC1(C)CCN(c2ncc(F)n3nc(-c4c[nH]c(=O)[nH]c4=O)cc23)C1 [Example 25.17]
Reply text: II

Inquiry: # bin label for Cc1cnc(N2CC(C)(C)C(F)(F)C2)c2cc(-c3c[nH]c(=O)[nH]c3=O)nn12 [Example 25.11]
Reply text: II

Inquiry: # bin label for O=c1[nH]cc(-n2cc3c(N4CC(F)(F)C5(CC5)C4)ncc(Cl)c3n2)c(=O)[nH]1 [Example 28.1]
Reply text: III

Inquiry: # bin label for CN1CCOC(COC2CN(c3ncnc4sc(-c5c[nH]c(=O)[nH]c5=O)cc34)CC2(F)F)C1 (stereo not shown) [Example 4.3, formate salt]
Reply text: I

Inquiry: # bin label for CC1(C)CN(c2ncnn3cc(-c4c[nH]c(=O)[nH]c4=O)cc23)CC1(F)F [Example 10.2]
Reply text: I

Inquiry: # bin label for CC(C)NC(=O)OCC(F)(F)CNc1ncnc2oc(-c3c[nH]c(=O)[nH]c3=O)cc12 [Example 20]
Reply text: I
